target: glyceraldehyde 3-phosphate dehydrogenase (PfGAPDH I209T) (Plasmodium falciparum, UniProt Q8IKK7, I209T); construct: recombinant PfGAPDH, N-terminal 6x-His tag, N-term and C-term modifications for improved solubility; assay: heme titration by absorption spectroscopy (purified protein)
Sequence (Q8IKK7 whole entry I209T): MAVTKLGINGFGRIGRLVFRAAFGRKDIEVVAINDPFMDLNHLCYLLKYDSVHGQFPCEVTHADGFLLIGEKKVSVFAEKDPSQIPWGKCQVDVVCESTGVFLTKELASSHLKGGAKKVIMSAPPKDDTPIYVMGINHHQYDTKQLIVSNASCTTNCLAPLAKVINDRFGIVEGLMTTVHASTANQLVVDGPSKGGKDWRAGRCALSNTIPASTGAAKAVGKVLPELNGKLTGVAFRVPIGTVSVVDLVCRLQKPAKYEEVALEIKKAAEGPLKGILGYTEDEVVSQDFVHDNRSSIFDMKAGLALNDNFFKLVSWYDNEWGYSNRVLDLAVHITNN
pKd: −log10 of the molar value.

[
  {
    "given smiles": "C=CC1=C(C)C2=Cc3c(C=C)c(C)c4[n]3[Fe][n]3c(c(C)c(CCC(=O)O)c3=CC3=NC(=C4)C(C)=C3CCC(=O)O)=CC1=N2",
    "pKd": 5.74
  }
]

Hey, just so you know, these numbers are from paper PMC9512246.
